Tested on: ischemia reperfusion (I/R)-induced iAKI
Assay: functional screening of amino acids in ischemia reperfusion (I/R)-induced iAKI
Format: in vivo, wild type C57B/L6 mice
Conditions: 48 hours reperfusion after 25 min ischemia; 75 mg/kg i.p. 1 hour prior and every 8 hours afterwards; vs vehicle; n=5-6
recorded endpoint: BUN

Check out these entries, answers already filled in.
C[C@@H](O)[C@H](N)C(=O)O	reduced
CC[C@H](C)[C@H](N)C(=O)O	reduced
N[C@@H](Cc1c[nH]cn1)C(=O)O	reduced
N=C(N)NCCC[C@H](N)C(=O)O	elevated
CC(C)[C@H](N)C(=O)O	elevated
NC(=O)CC[C@H](N)C(=O)O	reduced
CC(C)C[C@H](N)C(=O)O	reduced

Shifting focus to the molecule that follows.
Exercise: Report the value of BUN obtained on ischemia reperfusion (I/R)-induced iAKI for "N[C@@H](CC(=O)O)C(=O)O" .
Key: reduced
